read-out: Thrombomodulin, THBD (gene 7056); assay: BSK_3C_Thrombomodulin: BioMAP Diversity Plus: 3C Assay for Thrombomodulin Biomarker Activity (AID 2283029); details: primary human endothelial cells (HUVEC); actives raise or lower the signal
Calls of active or inactive are those of the source. Rule for the calls: active = hit-call score of the fitted dose curve at least 0.9, where 1 is the maximum; inactive = score below 0.9.
Labels: active, inactive

Oc1cc2ccccc2c2ccccc12	active
CCc1ccc(CCOc2ccc(CC3SC(=O)NC3=O)cc2)nc1 (centres undefined)	inactive
CC(C)CCCCCCOC(=O)CCCCC(=O)OCCCCCCC(C)C	inactive
CCCCCCCCCCCCCCCS(=O)(=O)Oc1ccccc1	inactive
NC(=O)N(O)[C@@H]1C=C[C@H](Oc2cccc(Oc3ccc(F)cc3)c2)C1	inactive
CCCCC(CC)COC(=O)CCCCC(=O)OCC(CC)CCCC (centres undefined)	inactive
CCOC(=O)CC(O)(CC(=O)OCC)C(=O)OCC	inactive
OCCC(F)(F)C(F)(F)C(F)(F)C(F)(F)C(F)(F)C(F)(F)C(F)(F)C(F)(F)F	inactive
Cc1cc(C)c(O)c(C)c1	inactive
O=C(OCCOCCOC(=O)c1ccccc1)c1ccccc1	inactive
COCC(C)OCC(C)O (centres undefined)	inactive
CCc1nn(C2CCCCC2)c2cc(C3(C#N)CCC(C(=O)O)CC3)ccc12 (centres undefined)	inactive
CCCCC(CC)COC(=O)CCCCC(=O)OCc1ccccc1 (centres undefined)	inactive
CCCCCCCCCCCCc1ccccc1S(=O)(=O)O	inactive
CCCCCCCCCCCCN1CCCC1=O	inactive
CC(C)(C)c1cc(C(C)(C)C)c(O)c(C(C)(C)C)c1	active
CCCCOCCO	inactive
CCCCCCCCOC(=O)CCCCCCCCC(=O)OCCCCCCCC	inactive
CC#C[C@]1(O)CC[C@H]2[C@@H]3CCC4=CC(=O)CCC4=C3[C@@H](c3ccc(N(C)C)cc3)C[C@@]21C	inactive
c1ccc2cc3c(ccc4ccccc43)cc2c1	inactive
C=C(C)C(=O)OCCC(F)(F)C(F)(F)C(F)(F)C(F)(F)C(F)(F)C(F)(F)F	inactive
CCN(CC)CCNc1ccc(CNC=O)c2sc3ccc(OC)cc3c(=O)c12	inactive
OC1CCCCC1	inactive
O=[N+]([O-])c1ccc(O)cc1	inactive
CCC(C)(C)C1CCC(O)CC1 (centres undefined)	inactive
C[C@@H]1C[C@H]2[C@@H]3CCC4=CC(=O)C=C[C@]4(C)[C@@]3(F)[C@@H](O)C[C@]2(C)[C@@]1(O)C(=O)COP(=O)(O)O	inactive
O=C(O)c1ccccc1C(c1ccc(O)cc1)c1ccc(O)cc1	inactive
CN1CCN(c2ccccc2/C=C2\SCCN(c3ccc(Cl)c(Cl)c3)C2=O)CC1	inactive
CN1CCC[C@H]1c1cccnc1	inactive
c1ccc2c(c1)ccc1ccccc12	inactive
CC(=O)NC1(c2cccc(F)c2)CCN(CC[C@@]2(c3ccc(Cl)c(Cl)c3)CN(c3ccccc3)C(=O)CO2)CC1	inactive
Nc1cccc2c(N)cccc12	inactive
CC(C)(C)c1cccc(C(C)(C)C)c1O	inactive
N#C[C@@H]1CC(F)(F)CN1C(=O)CNC1CC2CCC(C1)N2c1ncccn1 (some centres undefined)	inactive

====

read-out: Transforming Growth Factor (TGFA), TGFA (gene 7039); assay: LTEA_HepaRG_TGFA: Life Technologies and Expression Analysis (LTEA) Assay for Transforming Growth Factor (TGFA) using HepaRG (AID 2283532); settings: mRNA level, 48 h; actives raise or lower the signal
Active and inactive are the calls of the source. How the source made its calls: active means hit-call score of the fitted dose curve at least 0.9, where 1 is the maximum; inactive means score below 0.9.
observation-type: AC50

Cc1cc(C)c(O)c(C)c1	inactive
CC(=O)NC1(c2cccc(F)c2)CCN(CC[C@@]2(c3ccc(Cl)c(Cl)c3)CN(c3ccccc3)C(=O)CO2)CC1	inactive
CCc1nn(C2CCCCC2)c2cc(C3(C#N)CCC(C(=O)O)CC3)ccc12 (stereo unspecified)	65.5 µM (active)
CC[C@H](C)[C@@H](C(=O)O)n1sc2ccccc2c1=O	inactive
O=[N+]([O-])c1ccc(O)cc1	inactive
CC#C[C@]1(O)CC[C@H]2[C@@H]3CCC4=CC(=O)CCC4=C3[C@@H](c3ccc(N(C)C)cc3)C[C@@]21C	44.9 µM (active)
CCCCCCCCOC(=O)CCCCCCCCC(=O)OCCCCCCCC	inactive
c1ccc2cc3c(ccc4ccccc43)cc2c1	inactive
CN1CCN(c2ccccc2/C=C2\SCCN(c3ccc(Cl)c(Cl)c3)C2=O)CC1	96.2 µM (active)
CCCCC(CC)COC(=O)CCCCC(=O)OCC(CC)CCCC (stereo unspecified)	inactive
CCc1ccc(CCOc2ccc(CC3SC(=O)NC3=O)cc2)nc1 (stereo unspecified)	24 µM (active)

====

read-out: Peroxisomal acyl-coenzyme A oxidase 1 (ACOX1) gene, ACOX1 (gene 51); assay: LTEA_HepaRG_ACOX1: Life Technologies and Expression Analysis (LTEA) Assay for Peroxisomal acyl-coenzyme A oxidase 1 (ACOX1) gene using HepaRG (AID 2283467); settings: mRNA level, 48 h; actives raise or lower the signal
The source made the active and inactive calls. Rule for the calls: active = hit-call score of the fitted dose curve at least 0.9, where 1 is the maximum; inactive = score below 0.9.
Classes used: active, inactive

CCCCCCCCCCCCc1ccccc1S(=O)(=O)O	active
OCCC(F)(F)C(F)(F)C(F)(F)C(F)(F)C(F)(F)C(F)(F)F	inactive
CCCCCCCCOC(=O)CCCCCCCCC(=O)OCCCCCCCC	inactive
NC(=O)N1C(=O)C(C(=O)c2cc(Cl)cs2)c2cc(F)c(Cl)cc21 (stereo not drawn)	active
CCCOc1sc(C(=O)N2CCC(c3cc(CN)ccc3F)CC2)c(C)c1Br	inactive
ClC1=C(Cl)C(Cl)(Cl)C(Cl)=C1Cl	inactive
CCCCCCC(=O)O	inactive
O=C(O)c1ccccc1C(c1ccc(O)cc1)c1ccc(O)cc1	inactive
COCC(C)OCC(C)O (stereo not drawn)	inactive
CCCCCCCC(=O)O	active
Oc1cc2ccccc2c2ccccc12	inactive
CC(C)(C)c1ccc(O)c(C(C)(C)C)c1	inactive
Nc1cccc2c(N)cccc12	inactive

====

test: BSK_3C_Vis: BioMAP Diversity Plus: 3C Assay for Morphology Visualization (AID 2283025); conditions: primary human endothelial cells (HUVEC);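 note: fitted both ways so gain or loss versus DMSO counts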
Calls of active or inactive are those of the source. How the source made its calls: active means hit-call score of the fitted dose curve at least 0.9, where 1 is the maximum; inactive means score below 0.9.
Labels: active, inactive

CCCCCCCCCCCCCC[N+](C)(C)C	active
CCCOC(=O)c1ccc(O)cc1	inactive
COc1ccc([N+](=O)[O-])cc1N	inactive
CCCCCCCCCCCCCCCS(=O)(=O)Oc1ccccc1	inactive
CC(C)(C)CC(C)(C)c1ccc(O)c(-n2nc3ccccc3n2)c1	inactive
COC(=O)CCCCC(=O)OC	inactive
CCCCCCCC(=O)O	inactive
CCC(=C(c1ccc(O)cc1)c1ccc(OCCN(C)C)cc1)c1ccccc1	active
CN1CCC[C@H]1c1cccnc1	inactive
CC#C[C@]1(O)CC[C@H]2[C@@H]3CCC4=CC(=O)CCC4=C3[C@@H](c3ccc(N(C)C)cc3)C[C@@]21C	inactive
OC1CCCCC1	inactive
CC(O)CO (stereo not drawn)	inactive
CCCOc1sc(C(=O)N2CCC(c3cc(CN)ccc3F)CC2)c(C)c1Br	active
CCCCC(CC)COC(=O)CCCCC(=O)OCC(CC)CCCC (stereo not drawn)	inactive
O=C(OCCOCCOC(=O)c1ccccc1)c1ccccc1	inactive
CN1CCN(c2ccccc2/C=C2\SCCN(c3ccc(Cl)c(Cl)c3)C2=O)CC1	active
C=C(C)C(=O)OCCC(F)(F)C(F)(F)C(F)(F)C(F)(F)C(F)(F)C(F)(F)F	inactive
CCCCCCC(=O)O	inactive
O=C(O)Cc1cc(I)c(Oc2cc(I)c(O)c(I)c2)c(I)c1	inactive
c1ccc2c(c1)Cc1ccccc1-2	inactive
N#C[C@@H]1CC(F)(F)CN1C(=O)CNC1CC2CCC(C1)N2c1ncccn1 (stereo partly drawn)	active
CCc1nn(C2CCCCC2)c2cc(C3(C#N)CCC(C(=O)O)CC3)ccc12 (stereo not drawn)	active
Nc1cccc2c(N)cccc12	inactive
NC(=O)N(O)[C@@H]1C=C[C@H](Oc2cccc(Oc3ccc(F)cc3)c2)C1	inactive
COCC(C)O (stereo not drawn)	inactive
Cc1cc(CCN2CCN(c3nsc4ccccc34)CC2)cc2c1NC(=O)CC2(C)C	active
OCCC(F)(F)C(F)(F)C(F)(F)C(F)(F)C(F)(F)C(F)(F)F	inactive
O=[N+]([O-])c1ccc(O)cc1	inactive

====

read-out: TIMP metallopeptidase inhibitor 1 (TIMP1), TIMP1 (gene 7076); assay: BSK_hDFCGF_TIMP1: BioMAP Diversity Plus: hDFCGF Assay for TIMP metallopeptidase inhibitor 1 (TIMP1) Biomarker Activity (AID 2283062); settings: primary human foreskin fibroblasts; actives raise or lower the signal
Active and inactive are the calls of the source. The calls were made as follows: active = hit-call score of the fitted dose curve at least 0.9, where 1 is the maximum; inactive = score below 0.9.
Labels: 1.0 = active, 0.0 = inactive

COCC(C)OCC(C)O (stereo unspecified)	0.0
CCCCCCC(=O)O	0.0
CCCCC(CC)COC(=O)CCCCC(=O)OCC(CC)CCCC (stereo unspecified)	0.0
CCc1ccc(CCOc2ccc(CC3SC(=O)NC3=O)cc2)nc1 (stereo unspecified)	0.0
C#C[C@]1(O)CC[C@H]2[C@@H]3CCC4=CC(=O)CC[C@@H]4[C@H]3CC[C@@]21C	0.0
CC(C)(C)c1cc(C(C)(C)C)c(O)c(C(C)(C)C)c1	1.0
O=C(O)Cc1cc(I)c(Oc2cc(I)c(O)c(I)c2)c(I)c1	0.0
N#C[C@@H]1CC(F)(F)CN1C(=O)CNC1CC2CCC(C1)N2c1ncccn1 (stereo partly specified)	0.0
CCCCCCCCCCCCc1ccccc1S(=O)(=O)O	1.0
OC1CCCCC1	0.0
Cc1cc(CCN2CCN(c3nsc4ccccc34)CC2)cc2c1NC(=O)CC2(C)C	1.0
Oc1cccc(O)c1	0.0
c1ccc2c(c1)ccc1ccccc12	0.0
CC(C)(C)CC(C)(C)c1ccc(O)c(-n2nc3ccccc3n2)c1	0.0
O=[N+]([O-])c1ccc(O)cc1	0.0
CC(O)CO (stereo unspecified)	0.0
CCCCCCCCOC(=O)CCCCCCCCC(=O)OCCCCCCCC	0.0
CCCCCCCCCCCCCC[N+](C)(C)C	1.0
CN1CCN(c2ccccc2/C=C2\SCCN(c3ccc(Cl)c(Cl)c3)C2=O)CC1	1.0
CC(C)(C)c1cccc(C(C)(C)C)c1O	1.0
CCc1nn(C2CCCCC2)c2cc(C3(C#N)CCC(C(=O)O)CC3)ccc12 (stereo unspecified)	1.0
CC1=C(/C=C/C(C)=C/C=C/C(C)=C/C(=O)O)C(C)(C)CCC1	1.0
CC[C@H](c1ccc(O)cc1)[C@@H](CC)c1ccc(O)cc1	0.0
CC(=O)NC1(c2cccc(F)c2)CCN(CC[C@@]2(c3ccc(Cl)c(Cl)c3)CN(c3ccccc3)C(=O)CO2)CC1	1.0
CCCCC(CC)COC(=O)CCCCC(=O)OCc1ccccc1 (stereo unspecified)	0.0
CN(C)C=O	0.0
